Origin of values: patent US20220411517A1

# target-of-assay: T1, hIL-1RAP(1-367)_F-chLys_Avi (human, biotinylated (Avi tag) in SPR and ELISA binning; unlabeled in SET)
# T1 construct: also called human IL-1RAcP (AG-12210)
# test-method-notes: SPR (Biacore), biotinylated antigen captured, FabCys-AviHis as analyte, 1:1 fit
readout-name: pKd
Please note pKd is a logarithmic value: minus log10 of concentration in mol/L. Answer with that number alone.

// pKd lookup, binder = Y024149_h_FabCys-AviH (Fab, V domains shown, Disulphide-linked Fab with Avi and His tags; also called Y024149 in FabCys-AviHis format) VH: EVQLVESGGGLVQPGGSLRLSCAASGGTFGGSAMHWVRQAPGKGLVWVSRILTYGGIATYAESVKGRFTISRDNAKNTLYLQMNSLRAEDTAVYYCARGSSEYPKFDIWGQGTLVTVSS VL: DIQMTQSPSTLSASVGDRVTITCRASQSISSWLAWYQQKPGKAPKLLIYDASSLESGVPSRFSGSGSGTEFTLTISSLQPEDFATYYCHQLLIYPHTFGQGTKVEIKR , result: 10.60

// pKd lookup, binder = CAN04_h_FabCys-AviH (Fab, V domains shown, Tested as disulphide-linked Fab with Avi and His tags; also called CAN04 in FabCys-AviHis format; CAN04 (R001031)) VH: QVQLVQSGAEVKKPGSSVKVSCKASGYAFSSSWMNWVRQAPGQGLEWMGRIYPGDGNTHYAQKFQGRVTLTADKSTSTAYMELSSLRSEDTAVYYCGEGYLDPMDYWGQGTLVTVSS VL: DIQMTQSPSSLSASVGDRVTITCSASQGINNYLNWYQQKPGKAPKLLIHYTSGLHAGVPSRFSGSGSGTDYTLTISSLQPEDVATYYCQQYSILPWTFGGGTKVEIKR , result: 9.78

// pKd lookup, binder = 1A05_rbh_FabCys-AviH (Fab, V domains shown, Tested as disulphide-linked Fab with Avi and His tags; also called 1A05 in FabCys-AviHis format; 1A05 (R001032)) VH: LEQSGGGAEGGLVKPGGSLELCCKASGFSLSTSYWRCWVRQAPGKGLEWIGCIYAGSGDVTYYANWVNGRFTLSRDIDQSTGCLQLNSLTAADTAMYYCASGVGFGYFNLWGQGTLVTVSS VL: ALVMTQTPSPVSAAVGGTVTINCQASEDIYSNLAWFQQKPGQPPKLLIYDASTLASGVPSRFSGSGSGTEFTLTISGLQSDDAATYYCLGVYTHISADNAFGGGTEVVVKR , result: 9.66

// pKd lookup, binder = Y024148_h_FabCys-AviH (Fab, V domains shown, Disulphide-linked Fab with Avi and His tags; also called Y024148 in FabCys-AviHis format) VH: EVQLVESGGGLVQPGGSLRLSCAASGGTIGGSAVHWVRQAPGKGLVWVSRILTYSSTTQYAESVKGRFTISRDNAKNTLYLQMNSLRAEDTAVYYCARGSSEYPKFDIWGQGTLVTVSS VL: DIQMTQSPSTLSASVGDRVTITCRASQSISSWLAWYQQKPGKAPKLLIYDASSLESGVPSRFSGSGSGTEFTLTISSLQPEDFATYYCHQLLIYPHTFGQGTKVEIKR , result: 10.74
